# System: U-251
# Method notes: NCI tumour cell line growth inhibition, 48 h
The source made the active and inactive calls. No stated cut-off is given here; in the data, active = GI50 up to about 1.1 µM and inactive = higher.
Outcome measure: GI50

Worked examples, 10 compounds total:
Clc1ccc(C[P+]2(c3ccccc3)CCCCC2)cc1.[O-][Cl+3]([O-])([O-])[O-]: 45.5 µM (inactive)
COC(=O)NN=C1C(C)(C)C(=NNC(=O)OC)C1(C)C: > 62.7 µM (inactive)
CCOC(=O)CCc1c(C)c2ccc(O)cc2oc1=O: > 100 µM (inactive)
CCCN(CCC)CCc1ccc(OC2=CCN(C)CC2)cc1: > 100 µM (inactive)
O=C1N(c2ccccc2)C2(O)C(=O)c3ccccc3C2(O)N1c1ccccc1 (stereo not given): > 100 µM (inactive)
COc1ccc(N[S+]([O-])c2ccc(Cl)cc2)cc1 (stereo not given): 11.8 µM (inactive)
CO[C@]12S[C@@H]3CCCC[C@@]31C(C)(C)C(=O)N2c1ccccc1: 26.6 µM (inactive)
COc1ccc(C2C=C(c3ccc4c(c3)OCO4)Oc3c2c(=O)oc2ccccc32)cc1OC (stereo not given): 0.413 µM (active)
COc1ccc(NC=O)c(C(O)CCNC(C)=O)c1 (stereo not given): > 100 µM (inactive)
O=C(C[C@@H]1NCCC[C@H]1O)Cn1cnc2cc(Br)c(Cl)cc2c1=O: 0.0252 µM (active)

Turning now to a further record.
Enter measured GI50, system U-251, for the compound shown: `CC(C)(C)[Si](C)(C)OC[C@H](/C=C\CCCC(=O)O)NC1(c2ccccc2)c2ccccc2-c2ccccc21` 14.4 µM (inactive)
